The reported numbers originate from patent US20150044226A1.

Biological target: T1, human PLD4 (phospholipase D4) protein (UniProt Q96BZ4 1-506)
T1 chain: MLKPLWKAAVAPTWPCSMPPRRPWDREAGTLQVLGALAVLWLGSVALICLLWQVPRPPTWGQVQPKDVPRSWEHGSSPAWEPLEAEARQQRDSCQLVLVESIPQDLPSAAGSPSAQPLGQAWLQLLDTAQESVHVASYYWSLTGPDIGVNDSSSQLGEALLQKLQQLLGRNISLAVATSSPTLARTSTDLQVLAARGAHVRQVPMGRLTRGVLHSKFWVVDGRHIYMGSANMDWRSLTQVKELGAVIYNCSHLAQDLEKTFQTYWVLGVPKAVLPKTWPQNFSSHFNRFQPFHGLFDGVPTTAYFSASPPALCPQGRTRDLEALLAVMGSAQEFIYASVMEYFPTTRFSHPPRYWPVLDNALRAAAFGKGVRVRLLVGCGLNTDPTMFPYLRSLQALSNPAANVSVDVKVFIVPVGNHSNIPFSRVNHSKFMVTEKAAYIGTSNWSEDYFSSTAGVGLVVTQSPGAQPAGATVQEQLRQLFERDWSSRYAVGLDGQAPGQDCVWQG
Test: binding to human PLD4-CT125 stable cells; apparent Kd
metric: pKd
Schema: pKd number; meaning minus log10 of the concentration expressed in molar units.

Supply recorded pKd for anti-PLD4 mouse 13D4 antibody (antibody, mouse IgG2b, V domains shown, Tested as hybridoma culture supernatant and as purified antibody; also called mp13D4 (hybridoma)) VH: DVQLQESGPGLVKPSQSLSLTCSVTGYSITSHYYWTWIRQFPGNKLEWMGYISYDGSNNYNPSLKNRISITRDTSKNQFFLKLNSVTTEDTATYNCAREGPLYYGNPYWYFDVWGAGTTVTVSS VL: DIQMTQTTSSLSASLGDRVTISCRASQDIDNYLNWYQQKPDGTVKLLIYYTSRLHSGVPSRFSGSGSGTDYSLTISNLEQEDVATYFCQQFNTLPRTFGGGTKLEIKR here.
10.35

Supply pKd value. Item: anti-PLD4 mouse 14C1 antibody (antibody, mouse IgG1, V domains shown, Tested as hybridoma culture supernatant and as purified antibody) VH: DVQLQESGPGLVKPSQSLSLTCSVTGYSISSHYYWSWIRQFPGNRLEWMGYISYDGSNNYNPSLKNRISITRDTSKNQFFLKLNSVTTEDTATYNCAREGPLYYGNPYWYFDVWGAGTTVTVSS VL: DIQMTQTTSSLSASLGGSVTISCRASQDIDNYLNWYQQKPDGTVKLLIYYTSRLHSGVPSRFSGSGSGTDYSLTISNLEQEDIATYFCQQFNTLPRTFGGGTKLEIKR
8.43

State its pKd: anti-PLD4 mouse 3B4 antibody (antibody, V domains shown, Tested as hybridoma culture supernatant and as protein A purified antibody) VH: EVQLQQSGTVLSRPGASVTMSCKASGDSFTTYWMHWVKQRPGQGLEWIGAIYPGNSETSYNQKFKGKAKLTAVTSASTAYMEFTSLTNEDSAVYYCTGGYSDFDYWGQGTTLTVSS VL: DILMTQSPSSMSVSLGDTVSITCHASQGIRSNIGWLQQKPGKSFKGLIFHGTNLEDGVPSRFSGRGSGADYSLTINSLESEDFADYYCVQYVQFPPTFGSGTKLEIRR
8.67
